system: NCI-H23; experiment: relative viability (nuclei count vs DMSO), 5 days (fraction); higher = more cells survive; conditions: first compound 0.3162 µM
Each entry below carries its reported relative viability.
Parameter Measured: relative viability

Compound	Result
NC(=O)Nc1cc(-c2cccc(F)c2)sc1C(=O)N[C@H]1CCCNC1 [AZD7762] + C[C@@H](Oc1cc(-c2cnn(C3CCNCC3)c2)cnc1N)c1c(Cl)ccc(F)c1Cl [Crizotinib] (partner 1 µM)	0.323
NC(=O)Nc1cc(-c2cccc(F)c2)sc1C(=O)N[C@H]1CCCNC1 [AZD7762] + CC1(C)CCC(c2ccc(Cl)cc2)=C(CN2CCN(c3ccc(C(=O)NS(=O)(=O)c4ccc(N[C@H](CCN5CCOCC5)CSc5ccccc5)c(S(=O)(=O)C(F)(F)F)c4)cc3)CC2)C1 [Navitoclax] (partner 0.5 µM)	0.783
NC(=O)Nc1cc(-c2cccc(F)c2)sc1C(=O)N[C@H]1CCCNC1 [AZD7762] + Nc1nc2[nH]cc(CCc3ccc(C(=O)N[C@@H](CCC(=O)O)C(=O)O)cc3)c2c(=O)[nH]1 [Pemetrexed] (partner 0.2 µM)	0.359
NC(=O)Nc1cc(-c2cccc(F)c2)sc1C(=O)N[C@H]1CCCNC1 [AZD7762] + Cc1nc(NC(=O)N2CCC[C@H]2C(N)=O)sc1-c1ccnc(C(C)(C)C(F)(F)F)c1 [Alpelisib] (partner 2 µM)	0.562
NC(=O)Nc1cc(-c2cccc(F)c2)sc1C(=O)N[C@H]1CCCNC1 [AZD7762] + N=C(N)NC(=N)NCCc1ccccc1 [Phenformin] (partner 250 µM)	0.654
NC(=O)Nc1cc(-c2cccc(F)c2)sc1C(=O)N[C@H]1CCCNC1 [AZD7762] + COc1cc2c(Oc3ccc(NC(=O)C4(C(=O)Nc5ccc(F)cc5)CC4)cc3F)ccnc2cc1OCCCN1CCOCC1 [Foretinib] (partner 0.25 µM)	1.11

* * *

Attribute: relative viability
test system: EBC-1; assay: relative viability (nuclei count vs DMSO), 5 days (fraction); higher = more cells survive; settings: first compound 0.3162 µM

Molecule	relative viability
NC(=O)Nc1cc(-c2cccc(F)c2)sc1C(=O)N[C@H]1CCCNC1 [AZD7762] + C[C@]1(O)C[C@@H](c2nc(-c3ccc4ccc(-c5ccccc5)nc4c3)c3c(N)nccn32)C1 [Linsitinib] (partner 1 µM)	0.884
NC(=O)Nc1cc(-c2cccc(F)c2)sc1C(=O)N[C@H]1CCCNC1 [AZD7762] + Cc1nc(NC(=O)N2CCC[C@H]2C(N)=O)sc1-c1ccnc(C(C)(C)C(F)(F)F)c1 [Alpelisib] (partner 2 µM)	0.763
NC(=O)Nc1cc(-c2cccc(F)c2)sc1C(=O)N[C@H]1CCCNC1 [AZD7762] + CS(=O)(=O)N1CCN(Cc2cc3nc(-c4cccc5[nH]ncc45)nc(N4CCOCC4)c3s2)CC1 [Pictilisib] (partner 1 µM)	0.28
NC(=O)Nc1cc(-c2cccc(F)c2)sc1C(=O)N[C@H]1CCCNC1 [AZD7762] + CC1(C)CCC(c2ccc(Cl)cc2)=C(CN2CCN(c3ccc(C(=O)NS(=O)(=O)c4ccc(N[C@H](CCN5CCOCC5)CSc5ccccc5)c(S(=O)(=O)C(F)(F)F)c4)cc3)CC2)C1 [Navitoclax] (partner 0.5 µM)	0.299
NC(=O)Nc1cc(-c2cccc(F)c2)sc1C(=O)N[C@H]1CCCNC1 [AZD7762] + C[C@@H](Oc1cc(-c2cnn(C3CCNCC3)c2)cnc1N)c1c(Cl)ccc(F)c1Cl [Crizotinib] (partner 1 µM)	0.187

* * *

tested on: HCC-15; experiment: relative viability (nuclei count vs DMSO), 5 days (fraction); higher = more cells survive; conditions: first compound 1 µM

Compound	relative viability
NC(=O)Nc1cc(-c2cccc(F)c2)sc1C(=O)N[C@H]1CCCNC1 [AZD7762] + Cc1nc(NC(=O)N2CCC[C@H]2C(N)=O)sc1-c1ccnc(C(C)(C)C(F)(F)F)c1 [Alpelisib] (partner 2 µM)	1.12
NC(=O)Nc1cc(-c2cccc(F)c2)sc1C(=O)N[C@H]1CCCNC1 [AZD7762] + N=C(N)NC(=N)NCCc1ccccc1 [Phenformin] (partner 250 µM)	0.445
NC(=O)Nc1cc(-c2cccc(F)c2)sc1C(=O)N[C@H]1CCCNC1 [AZD7762] + COc1cccc2cc(-c3nc([C@H]4CC[C@H](C(=O)O)CC4)n4ncnc(N)c34)[nH]c12 [OSI-027] (partner 0.5 µM)	0.64
NC(=O)Nc1cc(-c2cccc(F)c2)sc1C(=O)N[C@H]1CCCNC1 [AZD7762] + COc1cc2c(Oc3ccc(NC(=O)C4(C(=O)Nc5ccc(F)cc5)CC4)cc3F)ccnc2cc1OCCCN1CCOCC1 [Foretinib] (partner 0.25 µM)	0.983
NC(=O)Nc1cc(-c2cccc(F)c2)sc1C(=O)N[C@H]1CCCNC1 [AZD7762] + CC1(C)CCC(c2ccc(Cl)cc2)=C(CN2CCN(c3ccc(C(=O)NS(=O)(=O)c4ccc(N[C@H](CCN5CCOCC5)CSc5ccccc5)c(S(=O)(=O)C(F)(F)F)c4)cc3)CC2)C1 [Navitoclax] (partner 0.5 µM)	0.789
NC(=O)Nc1cc(-c2cccc(F)c2)sc1C(=O)N[C@H]1CCCNC1 [AZD7762] + Cc1cc(Nc2cc(N3CCN(C)CC3)nc(Sc3ccc(NC(=O)C4CC4)cc3)n2)n[nH]1 [Tozasertib] (partner 0.1 µM)	0.212
NC(=O)Nc1cc(-c2cccc(F)c2)sc1C(=O)N[C@H]1CCCNC1 [AZD7762] + Cc1nc(Nc2ncc(C(=O)Nc3c(C)cccc3Cl)s2)cc(N2CCN(CCO)CC2)n1 [Dasatinib] (partner 0.075 µM)	0.52
NC(=O)Nc1cc(-c2cccc(F)c2)sc1C(=O)N[C@H]1CCCNC1 [AZD7762] + CC(C)C[C@H](NC(=O)[C@H](Cc1ccccc1)NC(=O)c1cnccn1)B(O)O [Bortezomib] (partner 0.002 µM)	0.986

* * *

system: NCI-H2023; assay: relative viability (nuclei count vs DMSO), 5 days (fraction); higher = more cells survive; conditions: first compound 8 µM
// classify: if (relative viability < 0.4) 1.0 else 0.0

Molecule	Label Class
C=C1C(=O)O[C@@H](CCCCCCCC)[C@@H]1C(=O)O [C-75] + CC1(C)CCC(c2ccc(Cl)cc2)=C(CN2CCN(c3ccc(C(=O)NS(=O)(=O)c4ccc(N[C@H](CCN5CCOCC5)CSc5ccccc5)c(S(=O)(=O)C(F)(F)F)c4)cc3)CC2)C1 [Navitoclax] (partner 0.5 µM)	0.0
C=C1C(=O)O[C@@H](CCCCCCCC)[C@@H]1C(=O)O [C-75] + CC(C)C[C@H](NC(=O)[C@H](Cc1ccccc1)NC(=O)c1cnccn1)B(O)O [Bortezomib] (partner 0.002 µM)	0.0
C=C1C(=O)O[C@@H](CCCCCCCC)[C@@H]1C(=O)O [C-75] + O=C(CCCCCCC(=O)Nc1ccccc1)NO [Vorinostat] (partner 1 µM)	1.0
C=C1C(=O)O[C@@H](CCCCCCCC)[C@@H]1C(=O)O [C-75] + Nc1ncn([C@H]2C[C@H](O)[C@@H](CO)O2)c(=O)n1 [Decitabine] (partner 2 µM)	1.0

* * *

Each item that follows carries a reported relative viability.
system: HOP-62; experiment: relative viability (nuclei count vs DMSO), 5 days (fraction); higher = more cells survive; details: first compound 0.08 µM
Parameter Measured: relative viability

Molecule	System	Parameter Measured	Result
Oc1nc(-c2ccc(C(F)(F)F)cc2)nc2c1CSCC2 [XAV939] + Cc1cc(Nc2cc(N3CCN(C)CC3)nc(Sc3ccc(NC(=O)C4CC4)cc3)n2)n[nH]1 [Tozasertib] (partner 0.1 µM)	HOP-62	relative viability	0.372
Oc1nc(-c2ccc(C(F)(F)F)cc2)nc2c1CSCC2 [XAV939] + C[C@]1(O)C[C@@H](c2nc(-c3ccc4ccc(-c5ccccc5)nc4c3)c3c(N)nccn32)C1 [Linsitinib] (partner 1 µM)	HOP-62	relative viability	1.01
Oc1nc(-c2ccc(C(F)(F)F)cc2)nc2c1CSCC2 [XAV939] + CCNC(=O)c1noc(-c2cc(C(C)C)c(O)cc2O)c1-c1ccc(CN2CCOCC2)cc1 [Luminespib] (partner 0.01 µM)	HOP-62	relative viability	1.01
C=C1C(=O)O[C@@H](CCCCCCCC)[C@@H]1C(=O)O [C-75] + CC(=O)Nc1cccc(-n2c(=O)n(C3CC3)c(=O)c3c(Nc4ccc(I)cc4F)n(C)c(=O)c(C)c32)c1 [Trametinib] (partner 0.02 µM)	HOP-62	relative viability	0.354
Oc1nc(-c2ccc(C(F)(F)F)cc2)nc2c1CSCC2 [XAV939] + COc1cccc2cc(-c3nc([C@H]4CC[C@H](C(=O)O)CC4)n4ncnc(N)c34)[nH]c12 [OSI-027] (partner 0.5 µM)	HOP-62	relative viability	1.01
C=C1C(=O)O[C@@H](CCCCCCCC)[C@@H]1C(=O)O [C-75] + Nc1ncn([C@H]2C[C@H](O)[C@@H](CO)O2)c(=O)n1 [Decitabine] (partner 2 µM)	HOP-62	relative viability	0.22
